# reported IC50; entries follow
Target: DRB1*1101 (Homo sapiens, UniProt P01903+P01911, A100R/A169T/A87E/I96F/K41T/L162R/M171V/P40S/Q125H/Q178H/Q39Y/Q99D/R42S/S66Y/T262R/V115G/W38E)
Sequence (P01903 26-254, other chains not shown): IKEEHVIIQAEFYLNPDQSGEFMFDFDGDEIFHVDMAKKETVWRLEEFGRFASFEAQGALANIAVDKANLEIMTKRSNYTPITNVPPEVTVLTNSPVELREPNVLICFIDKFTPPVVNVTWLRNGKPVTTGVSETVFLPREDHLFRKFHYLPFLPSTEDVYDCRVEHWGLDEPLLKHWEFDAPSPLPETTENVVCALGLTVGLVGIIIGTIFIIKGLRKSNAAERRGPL
Assay: biochemical

compound structure	units	IC50
CC[C@H](C)[C@H](NC(=O)[C@H](CC(C)C)NC(=O)[C@H](CC(N)=O)NC(=O)[C@H](Cc1ccc(O)cc1)NC(=O)[C@H](CC(N)=O)NC(=O)[C@@H]1CCCN1)C(=O)N[C@H](C(=O)N[C@@H](CCSC)C(=O)N[C@@H](CC(=O)O)C(=O)N[C@@H](CCC(=O)O)C(=O)N[C@@H](C)C(=O)N[C@@H](Cc1c[nH]cn1)C(=O)N[C@@H](Cc1ccccc1)C(=O)N[C@H](C(=O)N[C@@H](CC(=O)O)C(=O)O)[C@@H](C)O)[C@@H](C)CC	µM	4.61
CC[C@H](C)[C@H](NC(=O)[C@H](Cc1ccc(O)cc1)NC(=O)CNC(=O)[C@H](CC(C)C)NC(=O)[C@H](CCCCN)NC(=O)[C@H](Cc1c[nH]cn1)NC(=O)[C@H](CC(C)C)NC(=O)CNC(=O)[C@H](CCC(=O)O)NC(=O)CNC(=O)[C@H](CCC(=O)O)NC(=O)[C@@H](NC(=O)CNC(=O)[C@H](CO)NC(=O)[C@H](Cc1ccc(O)cc1)NC(=O)[C@H](CO)NC(=O)[C@@H](N)CC(N)=O)C(C)C)C(=O)O	µM	8.18
CC[C@H](C)[C@H](NC(=O)[C@H](CC(C)C)NC(=O)[C@H](CCCNC(=N)N)NC(=O)CNC(=O)[C@@H](N)CC(N)=O)C(=O)N[C@H](C(=O)N[C@@H](C)C(=O)N[C@@H](CC(N)=O)C(=O)N1CCC[C@H]1C(=O)N[C@H](C(=O)N[C@H](C(=O)N[C@H](C(=O)N[C@@H](CCCCN)C(=O)N[C@@H](CCCCN)C(=O)N[C@@H](CCC(=O)O)C(=O)O)[C@@H](C)O)C(C)C)C(C)C)[C@@H](C)O	µM	10.6
CC[C@H](C)[C@H](NC(=O)[C@H](CC(C)C)NC(=O)[C@H](CCCCN)NC(=O)CN)C(=O)N[C@@H](Cc1c[nH]cn1)C(=O)N[C@@H](CCC(=O)O)C(=O)N[C@@H](Cc1c[nH]c2ccccc12)C(=O)N[C@@H](CS)C(=O)N[C@@H](CS)C(=O)N[C@@H](CCCNC(=N)N)C(=O)N[C@@H](CO)C(=O)N[C@@H](CS)C(=O)N[C@H](C(=O)N[C@@H](CC(C)C)C(=O)N1CCC[C@H]1C(=O)O)[C@@H](C)O	µM	4.4
CC[C@H](C)[C@H](NC(=O)[C@H](C)N)C(=O)N[C@@H](CCC(N)=O)C(=O)N[C@@H](CCC(N)=O)C(=O)N[C@H](C(=O)N[C@@H](CCCNC(=N)N)C(=O)N[C@@H](CO)C(=O)N[C@@H](CC(C)C)C(=O)N[C@H](C(=O)NCC(=O)N[C@@H](CC(N)=O)C(=O)N[C@@H](CCC(=O)O)C(=O)N[C@@H](CCC(=O)O)C(=O)N[C@@H](Cc1ccccc1)C(=O)N[C@@H](CC(C)C)C(=O)N[C@@H](CC(=O)O)C(=O)N[C@@H](Cc1ccc(O)cc1)C(=O)O)[C@@H](C)CC)C(C)C	µM	0.421
